The reported numbers originate from PubChem BioAssay (NCI).

- System: DLD-1 colon
- Protocol description: NCI tumour cell line growth inhibition, 48 h
Experimental readout: TGI

With DLD-1 colon as the test system, Cc1cc(N(CCC#N)CCC#N)ccc1/C=C(\N=[N+]=[N-])C(=O)NC(=O)COc1ccccc1 showed TGI of > 100 µM

// returns TGI for CC(Oc1ccc2c(=O)cc(-c3ccccc3)oc2c1)C(=O)O (stereo unspecified) with DLD-1 colon; value = > 100 µM

Observed TGI on DLD-1 colon, entry CCCCCC1CC(C(C)=O)CN1c1ccc(F)cc1 (stereo unspecified) , equals > 100 µM

Form: item O=[N+]([O-])c1cc(C(F)(F)F)cc2c1SC1=Nc3ccccc3CN12 ; test system DLD-1 colon; TGI: > 100 µM

Param item: C=C1CCCC2OC(OC)CCC12 (stereo unspecified) ; param system: DLD-1 colon; output TGI: > 100 µM

The value of TGI recorded for O=c1oc2c(O)c(O)cc3c(=O)oc4c(O)c(O)cc1c4c23 when tested on DLD-1 colon reads > 100 µM

Param item: CCCCCCCCC1C(C)c2c([nH]c3ccccc23)C2C(=O)N(c3ccccc3)C(=O)C21 (stereo unspecified) ; param system: DLD-1 colon; output TGI: 45.2 µM

Measured TGI (DLD-1 colon), entry CCCCCCCCCCCCCC(=O)NO : > 94.8 µM

Hey, DLD-1 colon data for O=C(CC1(O)C(=O)Nc2c(Cl)cc(Cl)cc21)c1ccc([N+](=O)[O-])cc1 (stereo unspecified) : TGI came out at > 66 µM

Record CCCc1nn(C)c(CCC(=O)N(Cc2ccccc2)Cc2ccccc2)c1CC ; system DLD-1 colon; TGI = > 100 µM

Field TGI (DLD-1 colon), entry C/C(CC(=O)Nc1cccc([N+](=O)[O-])c1)=N/NC(N)=S : > 100 µM

* * *

So I've got a bunch of molecules here, and I need their TGI values.
- System: HCC-2998 colon
- Protocol description: NCI tumour cell line growth inhibition, 48 h
Your answer should be a plain number; it is taken to be in µM.

Summary for this molecule, O=C1c2c(c3c4ccccc4n(CCCCCCN4CCOCC4)c3c3[nH]c4ccccc4c23)C(=O)N1O : TGI is 32.1

// TGI lookup, molecule = NCCNc1ccc(NCCN)c2c1C(=O)c1c(O)ccc(O)c1C2=O , result: 1.24

TGI reading for CN(CCCNC(=O)c1cn(C)c2c1ccc1ccccc12)CCCNC(=O)c1cn(C)c2c1ccc1ccccc12 : 2.7

Value of TGI reported for the molecule COc1ccccc1/C=C1\CCC(CN2CCOCC2)C1=O (centres undefined) is 28.3

GET /value?item= CC(C)C1CCC(=O)CC1CCCCC1CC(=O)CC1O[Si](C)(C)C(C)(C)C (centres undefined) &field=TGI returns 19.3

Reported TGI for CC1OC(OC2C(O)C(OCCc3ccc(O)c(O)c3)OC(CO)C2OC(=O)/C=C/c2ccc(O)c(O)c2)C(O)C(O)C1O (centres undefined) was 35.6

Value of TGI reported for the molecule CCN(CC)CCC(=O)Nc1ccc2sc3ccccc3c(=O)c2n1 is 42.7

Per the records, this molecule ( Oc1ccccc1/C=N\Nc1ccccc1 ) has TGI equal to 15.5

The molecule listed as CCCCCCc1cc2cc(-c3cn4ccccc4n3)c(=O)oc2cc1O shows TGI equal to 47.2

Lab book: TGI of C=C(C)C1CC=C(C)C(O)([C@@]2(O)C[C@H](C(=C)C)CC=C2C)C1 (some centres undefined) noted as 35.7

Notebook: c1cc2cc(Cc3ccc4[nH]ccc4c3)ccc2[nH]1 , TGI read as 28.8

TGI in this record for CCc1c2c(nc3ccc(OC(=O)OCc4ccc(B5OC(C)(C)C(C)(C)O5)cc4)cc13)-c1cc3c(c(=O)n1C2)COC(=O)[C@]3(O)CC : 3.86

* * *

Provide the recorded TGI for the entries that follow.
- System: NCI/ADR-RES ovarian
- Protocol description: NCI tumour cell line growth inhibition, 48 h

Looking up Cc1c2c(n3c(nc4ccccc43)c1C#N)NCC2 , I see its TGI listed as > 10 µM

The measured TGI associated with CC(C)(Cl)C(Cl)CC/C(CBr)=C(\Cl)CBr (stereo unspecified) reads 7.9 µM

For this molecule ( CCOC(=O)C(CCSC)(CCSC)C(=O)OCC ), measured TGI is > 100 µM

// sample COc1cc2c(cc1OC)-c1cc3cc(OC)c(OC)cc3c(C)[n+]1CC2 (tested in a mixture with another compound) , its TGI was > 100 µM

Notebook: Oc1c(Cl)c(Cl)c(O)c(-c2cnc(-c3ncc(-c4c(O)c(Cl)c(Cl)c(O)c4Cl)s3)s2)c1Cl , TGI read as 71.6 µM

Query O=C1c2c(c3c4ccccc4n(CCCCCCN4CCOCC4)c3c3[nH]c4ccccc4c23)C(=O)N1O yields TGI of > 100 µM

Entry Cc1nnc(N)nc1C/C=C/C(C)Sc1ccc(Cl)cc1 (stereo unspecified) — recorded TGI = > 60.3 µM

Lab note: CCn1c(=O)c2c3ccc(O)cc3[nH]c2c2ccc(O)cc21 gave TGI of > 100 µM

Lab book: TGI of CC(Cn1c(=O)oc2ccccc21)N(C)C (stereo unspecified) noted as > 100 µM

The recorded TGI for entry COc1ccc2[nH]cc(Cc3c[nH]c4ccc(OC)cc34)c2c1 equals 42.1 µM

Record summary for COC(=O)CCc1cc(OC)c2oc(-c3ccc(OC)c(OC)c3)c(CO)c2c1 : reported TGI = > 100 µM

Form: molecule = Cc1cnc(-c2ccc(-c3ccc(NC(=O)Nc4cccc(C(F)(F)F)c4)cc3F)c3c2C(=O)NC3)[nH]1 ; TGI = > 100 µM

get_value(item= COC(=O)N1C2C(C[C@@]1(C)C(=O)OC)c1ccccc1N2S(=O)(=O)c1ccccc1 (stereo partly specified) , readout=TGI) returns > 100 µM

Value of measured TGI for the entry COc1ccc(C2CC(c3ccc4ccccc4c3)=NN2c2nc(O)c(C3=c4cc(Cl)ccc4=NC3=O)s2)cc1 (stereo unspecified) : 50 µM

Briefly, TGI measured for Cn1cc(-c2csc(-c3cn(CCCN4CCCCC4)c4ccc(Br)cc34)n2)c2cccnc21 : 3.73 µM

Query COc1cc2c(cc1OC)-c1c(c3ccc([N+](=O)[O-])cc3c(=O)n1CCCN=[N+]=[N-])C2=O yields TGI of > 100 µM

For reference, reported TGI for CC(NNC(=S)N1CCCC1)c1cccnn1 (stereo unspecified) stands at > 62.9 µM

Briefly, TGI measured for COc1ccc(-c2nsc3c2NC(=O)CC3c2cccc(F)c2)cc1 (stereo unspecified) : 16.7 µM

Data point: Clc1ccc2c(c1)CC1C[N+]3=C(CCCCC3)C1=C2 (stereo unspecified) ; TGI = > 100 µM

The value of TGI measured for the molecule Cn1c2ccccc2c(=NNc2ccc(S(=O)(=O)N=C(N)N)cc2)c2ccccc21 turned out to be 71.1 µM

GET /value?item= CC(C)C1CCC(=O)CC1CCCCC1CC(=O)CC1O[Si](C)(C)C(C)(C)C (stereo unspecified) &field=TGI returns 21.2 µM

* * *

- Tested on: RXF 393 renal
- Protocol description: NCI tumour cell line growth inhibition, 48 h; in the data active = GI50 below about 0.43 µM; inactive = the rest
Give your call using only these classes: active, inactive

Ask | What was the test verdict on COc1cc2c(cc1OC)-c1c(c3ccc([N+](=O)[O-])cc3c(=O)n1CCCN=[N+]=[N-])C2=O ?
Reply | inactive

Ask | How was CN(C)c1ccc(/C=N/n2c(CCCCc3n[nH]c(=S)n3/N=C/c3ccc(N(C)C)cc3)n[nH]c2=S)cc1 classified in this test?
Reply | inactive

Ask | Which outcome was entered for the molecule Cn1cc(-c2csc(-c3cn(CCCN4CCCCC4)c4ccc(Br)cc34)n2)c2cccnc21 in this test?
Reply | inactive

Ask | Given CCOC1Oc2ccccc2C(=O)/C1=C\Nc1ccc(C(=O)O)c(O)c1 (stereo unspecified) , state the outcome it received in this test.
Reply | inactive

Ask | So what was the verdict on Cl.[O-]c1cccc2cccnc12.[O-]c1cccc2cccnc12.[O-]c1cccc2cccnc12.[O-]c1cccc2cccnc12.[Ti+4] in this test?
Reply | active

Ask | Please let me know the test result on file for Oc1ccccc1/C=N\Nc1ccccc1 .
Reply | inactive

Ask | Returns: the outcome recorded for COc1ccc2c(c1)C(=O)/C(=C/c1cccc(OCC(=O)c3ccc([N+](=O)[O-])cc3)c1)CO2 in this assay.
Reply | inactive

Ask | I'd appreciate the recorded outcome for NS(=O)(=O)c1ccc(-n2nc(-c3ccccc3)cc2-c2cc(O)ccc2O)cc1 from this test.
Reply | inactive

Ask | Recorded call for O=c1oc2c(O)c(O)cc3c(=O)oc4c(O)c(O)cc1c4c23 ?
Reply | inactive

Ask | GET /call?item= CCCn1cc(/C=N\N=C2\C(=O)Nc3ccc(C)cc32)c2ccccc21 returns the recorded outcome of this test.
Reply | inactive

Ask | Assay outcome for Cn1c2ccccc2c2c(=O)n(CCCC(=O)NCCc3cnc[nH]3)c3c(-c4ccccc4)nnn3c21 : what was it?
Reply | inactive

Ask | Call for entry Cc1c(C(=O)/C=C/c2ccc(Cl)cc2)nnn1-c1ccnc2c(C(F)(F)F)cccc12 :
Reply | inactive

Ask | What did this assay record as the result for CN(CO)c1nc(N(C)CO)nc(N(C)CO)n1 ?
Reply | inactive

Ask | What is the recorded call for this molecule in the test? O=c1oc2ccc(I)cc2c(=O)n1-c1ccc(I)cc1F
Reply | inactive

Ask | Check the results log: what was the call for CN(C)c1ccc2cc3c(cc2c1)Oc1ccccc1N3.[Cl][Zn][Cl] ?
Reply | inactive

Ask | # fetch the recorded call for CCN(CC)CCNc1ccc(N=Nc2cnc3ccccc3c2)c2ccccc12 here
Reply | inactive
